Each recorded value in this set is attributed to patent US9963462B2.

study-target: SNAP-hSPR (sepiapterin reductase, SPR) (Homo sapiens, UniProt P35270)
Sequence (P35270 whole entry): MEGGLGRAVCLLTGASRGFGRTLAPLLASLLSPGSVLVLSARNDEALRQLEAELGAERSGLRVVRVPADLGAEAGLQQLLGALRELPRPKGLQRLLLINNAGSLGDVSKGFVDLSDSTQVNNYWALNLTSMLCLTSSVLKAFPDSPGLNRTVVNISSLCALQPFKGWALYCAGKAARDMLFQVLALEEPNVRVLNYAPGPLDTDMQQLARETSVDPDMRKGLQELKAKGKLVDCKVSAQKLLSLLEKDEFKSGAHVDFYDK
Each item that follows carries a reported IC50.

compound | study-target | IC50, nM
Cc1cc(=O)[nH]c(-n2ncc(C(=O)N(C)Cc3ccccc3)c2C)n1 [Q-0318] | SNAP-hSPR (sepiapterin reductase, SPR) (Homo sapiens, UniProt P35270) | 6
O=C(c1cn(-c2nn3cccc3c(=O)[nH]2)nn1)N1CCN(CC(F)(F)F)CC1 [Q-1223] | SNAP-hSPR (sepiapterin reductase, SPR) (Homo sapiens, UniProt P35270) | 3
Cc1c(C(=O)N2CCC(c3cccc(F)n3)CC2)cnn1-c1nn2cccc2c(=O)[nH]1 [Q-1117] | SNAP-hSPR (sepiapterin reductase, SPR) (Homo sapiens, UniProt P35270) | 1
Cc1c(C(=O)N2CC2c2ccccc2)cnn1-c1nc2c(c(=O)[nH]1)CCC2 (stereo not drawn) [Q-0596] | SNAP-hSPR (sepiapterin reductase, SPR) (Homo sapiens, UniProt P35270) | 4
Cc1c(C(=O)N2CCN(C)c3ccccc32)cnn1-c1nn2cccc2c(=O)[nH]1 [Q-0759] | SNAP-hSPR (sepiapterin reductase, SPR) (Homo sapiens, UniProt P35270) | 1
Cc1c(C(=O)N2CCC(C)(C#N)CC2)cnn1-c1nn2cccc2c(=O)[nH]1 [Q-0800] | SNAP-hSPR (sepiapterin reductase, SPR) (Homo sapiens, UniProt P35270) | 2
Cc1c(C(=O)N2CCN3CCC[C@@H]3C2)cnn1-c1nn2cccc2c(=O)[nH]1 [Q-0693] | SNAP-hSPR (sepiapterin reductase, SPR) (Homo sapiens, UniProt P35270) | 3
Cc1c(C(=O)N2CCC(C(F)(F)F)CC2)cnn1-c1nc2c(c(=O)[nH]1)CCC2 [Q-0418] | SNAP-hSPR (sepiapterin reductase, SPR) (Homo sapiens, UniProt P35270) | 2
O=C(c1cnn(-c2nc3ccsc3c(=O)[nH]2)c1)N1CCC(C2CC2)CC1 [Q-0711] | SNAP-hSPR (sepiapterin reductase, SPR) (Homo sapiens, UniProt P35270) | 2

---

Each item that follows carries a reported pIC50.
study-target: SNAP-hSPR (sepiapterin reductase, SPR) (Homo sapiens)
pIC50: −log10 of the molar value.
recorded-endpoint: pIC50

chem-smiles | recorded-endpoint | recorded-number
Cc1cc(=O)[nH]c(-n2cc(C(=O)N3CCC(C(F)(F)F)CC3)c(C)n2)n1 | pIC50 | 7.40
Cc1c(C(=O)N2CCC3(CC2)CC3)cnn1-c1nc2c(c(=O)[nH]1)CCC2 | pIC50 | 8.70
Cc1c(C(=O)N2CCC(c3nc(-c4ccncc4)cs3)CC2)cnn1-c1nn2cccc2c(=O)[nH]1 | pIC50 | 9.00
Cc1c(C(=O)N(Cc2ccccc2)[C@@H](C)c2ccccc2)cnn1-c1nc2c(c(=O)[nH]1)CCC2 | pIC50 | 7.52
Cc1c(C(=O)N2CCN(S(=O)(=O)c3cnc4ccccc4c3)CC2)cnn1-c1nn2cccc2c(=O)[nH]1 | pIC50 | 8.40
Cc1c(C(=O)N2CCC(C#N)(c3ccccn3)CC2)cnn1-c1nn2cccc2c(=O)[nH]1 | pIC50 | 9.00
Cc1c(C(=O)N2CCN(c3cccc(C(F)(F)F)c3)CC2)cnn1-c1nn2cccc2c(=O)[nH]1 | pIC50 | 8.52
O=C(c1cnn(-c2nn3cccc3c(=O)[nH]2)c1)N1CCN2CC(F)(F)C[C@H]2C1 | pIC50 | 8.40

---

pIC50: −log10 of the molar value.
Quick note: these are pIC50 numbers for system: SNAP-hSPR (sepiapterin reductase, SPR) (Homo sapiens, UniProt P35270)
recorded-endpoint: pIC50

compound | recorded-endpoint | recorded-number
Cc1c(C(=O)N2CC3C(C2)C3(F)F)cnn1-c1nn2cccc2c(=O)[nH]1 (centres unmarked) [Q-0807] | pIC50 | 8.70
Cc1c(C(=O)N2CCC(CC(F)(F)F)CC2)cnn1-c1nc2sccc2c(=O)[nH]1 [Q-0724] | pIC50 | 8.70
Cc1c(C(=O)N2CCC(c3ccccc3)CC2)cnn1-c1nc2ccsc2c(=O)[nH]1 [Q-0495] | pIC50 | 8.30
Cc1c(C(=O)N2CCC(c3cccnc3Cl)CC2)cnn1-c1nn2cccc2c(=O)[nH]1 [Q-1111] | pIC50 | 9.00
Cc1c(C(=O)N2CCN(S(=O)(=O)c3ccc(C(F)(F)F)cc3)CC2)cnn1-c1nn2cccc2c(=O)[nH]1 [Q-1834] | pIC50 | 9.00
Cc1c(C(=O)N2CCC(C(F)(F)F)C2)cnn1-c1nc2ccsc2c(=O)[nH]1 (centres unmarked) [Q-0403] | pIC50 | 8.05
O=C(c1cnn(-c2nn3c(F)ccc3c(=O)[nH]2)c1)N1CCC(CC(F)(F)F)CC1 [Q-0758] | pIC50 | 8.70
Cc1c(C(=O)N2CCC(c3nc(C(N)=O)cs3)CC2)cnn1-c1nn2cccc2c(=O)[nH]1 [Q-1090] | pIC50 | 9.00

---

Quick note: these are pIC50 numbers for system: SNAP-hSPR (sepiapterin reductase, SPR) (Homo sapiens, UniProt P35270)
pIC50: −log10 of the molar value.
recorded-endpoint: pIC50

compound | recorded-number
Cc1c(C(=O)N2CCC(C(F)(F)F)CC2)cnn1-c1nc2scnc2c(=O)[nH]1 | 7.00
Cc1cc(=O)[nH]c(-n2ncc(C(=O)NC3CCCC3)c2C(F)F)n1 | 7.10
Cc1c(C(=O)N2CC(C(F)(F)F)CC(C(F)(F)F)C2)cnn1-c1nc2ccsc2c(=O)[nH]1 (stereo not shown) | 7.30
Cc1c(C(=O)N2CCC3(CCCCN3)C2)cnn1-c1nc2c(c(=O)[nH]1)CCC2 (stereo not shown) | 7.40

---

pIC50: −log10 of the molar value.
Quick note: these are pIC50 numbers for system: SNAP-hSPR (sepiapterin reductase, SPR) (Homo sapiens, UniProt P35270)

compound | pIC50
C/C=C(/C1CCN(C(=O)c2cnn(-c3nn4cccc4c(=O)[nH]3)c2C)CC1)C(F)(F)F | 9.00
Cc1c(C(=O)N2CCC(C)(C)C2)cnn1-c1nc2ccsc2c(=O)[nH]1 | 8.15
Cc1c(C(=O)N2C[C@@H]3CN(C(=O)OC(C)(C)C)[C@@H]3C2)cnn1-c1nn2cccc2c(=O)[nH]1 | 8.22
Cc1c(C(=O)Nc2c(C(C)(O)C(F)(F)F)cnn2C(C)C)cnn1-c1nn2cccc2c(=O)[nH]1 (stereo not shown) | 9.00

---

study-target: SNAP-hSPR (sepiapterin reductase, SPR) (Homo sapiens)
assay-info: biochemical
Assay type: binding
test-context: terbium labelled SNAP-hSPR / SSZ labelled SNAP-EGFP; read-out: hTR-FRET IC50
pIC50: −log10 of the molar value.
Each item that follows carries a reported pIC50.
recorded-endpoint: pIC50

chem-smiles | recorded-number
Cc1c(C(=O)N2CCc3nc(-c4ccccn4)sc3C2)cnn1-c1nn2cccc2c(=O)[nH]1 | 8.70
Cc1c(C(=O)N2CC3CCCC(C2)N3CC(F)(F)F)cnn1-c1nc2c(c(=O)[nH]1)CCC2 | 8.70
Cc1c(C(=O)N2CCC(N3CCC(F)(F)CC3)CC2)cnn1-c1nn2cccc2c(=O)[nH]1 | 8.70
Cc1c(C(=O)N2CCC(c3nc(C#N)cs3)CC2)cnn1-c1nc2c(c(=O)[nH]1)CCC2 | 8.52
N#CC1(c2ccccc2)CCN(C(=O)c2cnn(-c3nn4cccc4c(=O)[nH]3)c2)CC1 | 8.52
O=C(O)c1ccnc(-c2nc3sccc3c(=O)[nH]2)c1 | 5.30
Cc1c(C(=O)N2CC3(CCCN3C(=O)OC(C)(C)C)C2)cnn1-c1nn2cccc2c(=O)[nH]1 | 9.00
Cc1c(C(=O)N2CCN(c3ccc(C(F)(F)F)cn3)CC2)cnn1-c1nn2cccc2c(=O)[nH]1 | 8.30

---

Each item that follows carries a reported IC50.
study-target: SNAP-hSPR (sepiapterin reductase, SPR) (Homo sapiens, UniProt P35270)
recorded-endpoint: IC50 (µM)

compound | study-target | recorded-endpoint | recorded-number
Cc1c(C(=O)N2CCc3ccccc3C2)cnn1-c1ncc(Cl)c(=O)[nH]1 | SNAP-hSPR (sepiapterin reductase, SPR) (Homo sapiens, UniProt P35270) | IC50 | 0.01
CC(C)(C#N)C1CCN(C(=O)c2cnn(-c3nn4cccc4c(=O)[nH]3)c2)CC1 | SNAP-hSPR (sepiapterin reductase, SPR) (Homo sapiens, UniProt P35270) | IC50 | 0.001
O=c1[nH]c(-n2cc(OC3CCCC3)cn2)nc2c1CCC2 | SNAP-hSPR (sepiapterin reductase, SPR) (Homo sapiens, UniProt P35270) | IC50 | 0.01
Cc1nc(-n2ncc(C(=O)N3c4ccccc4C[C@H]3C)c2C)[nH]c(=O)c1C (single isomer, unassigned) | SNAP-hSPR (sepiapterin reductase, SPR) (Homo sapiens, UniProt P35270) | IC50 | 0.02
